Source listed as ChEMBL document CHEMBL4043217.

assay: Volume of distribution in Sprague-Dawley rat plasma at 1 mg/kg, iv; format: ADME, organism-based
parameter: Vd (L/kg)
The answer is to be given in L/kg; state only the numeric part.

Prompt: If you can, please state the reported Vd value of C[C@]12CC[C@@H]3c4ccc(O)cc4CC[C@H]3[C@@H]1CC[C@@H]2OC(=O)[C@@H]1CCCN1C(=O)c1ccc(S(N)(=O)=O)cc1 .
Response: 5.68

====

Here's what we have: pIC50 numbers for Carbonic anhydrase 2 (Homo sapiens, UniProt P00918).
# pIC50 is unitless: minus log10 of the molar concentration; print number only

Prompt: pIC50 for C[C@]12CC[C@@H]3c4ccc(O)cc4CC[C@H]3[C@@H]1CC[C@@H]2OC(=O)[C@@H]1CCCN1C(=O)c1ccc(S(N)(=O)=O)nc1 ?
Response: 6.60

Prompt: Follow-up entry: C[C@]12CC[C@@H]3c4ccc(O)cc4CC[C@H]3[C@@H]1CC[C@@H]2OC(=O)[C@@H]1CCCN1C(=O)c1cccc(S(N)(=O)=O)c1
Response: 6.52

Prompt: Then what about the compound C[C@]12CC[C@@H]3c4ccc(O)cc4CC[C@H]3[C@@H]1CC[C@@H]2OC(=O)[C@@H]1CCCN1Cc1ccc(S(N)(=O)=O)cc1 ?
Response: 6.89

Prompt: Again, but for C[C@]12CC[C@@H]3c4ccc(O)cc4CC[C@H]3[C@@H]1CC[C@@H]2OC(=O)[C@@H]1CCCN1C(=O)c1ccc(S(N)(=O)=O)o1
Response: 6.60

Prompt: Another compound to check: C[C@]12CC[C@@H]3c4ccc(O)cc4CC[C@H]3[C@@H]1CC[C@@H]2OC(=O)[C@@H]1CCCN1C(=O)c1ccc(-c2ccc(S(N)(=O)=O)cc2)cc1
Response: 6.54

Prompt: Request: C[C@]12CC[C@@H]3c4ccc(O)cc4CC[C@H]3[C@@H]1CC[C@@H]2OC(=O)[C@@H]1CCCN1S(N)(=O)=O
Response: 5.00

Prompt: Same question, C[C@]12CC[C@@H]3c4ccc(O)cc4CC[C@H]3[C@@H]1CC[C@@H]2OC(=O)[C@@H]1CCCN1C(=O)c1coc(S(N)(=O)=O)c1 this time
Response: 8.15

Prompt: Now this one: C[C@H](NC(=O)c1ccc(S(N)(=O)=O)cc1)C(=O)O[C@H]1CC[C@H]2[C@@H]3CCc4cc(O)ccc4[C@H]3CC[C@]12C
Response: 6.60

Prompt: Try the compound C[C@]12CC[C@@H]3c4ccc(O)cc4CC[C@H]3[C@@H]1CC[C@@H]2OC(=O)[C@@H]1CCCN1C(=O)c1ccc(S(N)(=O)=O)cn1
Response: 5.30

Prompt: How about this compound: CC(C)[C@H](NC(=O)c1ccc(S(N)(=O)=O)cc1)C(=O)O[C@H]1CC[C@H]2[C@@H]3CCc4cc(O)ccc4[C@H]3CC[C@]12C
Response: 6.69

Prompt: Request: Cc1cc(C(=O)N2CCC[C@H]2C(=O)O[C@H]2CC[C@H]3[C@@H]4CCc5cc(O)ccc5[C@H]4CC[C@]23C)ccc1S(N)(=O)=O
Response: 6.68

Prompt: Try this compound next: C[C@]12CC[C@@H]3c4ccc(O)cc4CC[C@H]3[C@@H]1CC[C@@H]2OC(=O)[C@@H]1CCCN1C(=O)c1cccc(-c2ccc(S(N)(=O)=O)cc2)c1
Response: 6.92

Prompt: How about this compound: C[C@]12CC[C@@H]3c4ccc(O)cc4CC[C@H]3[C@@H]1CC[C@@H]2OC(=O)[C@@H]1CCCN1c1ccc(S(N)(=O)=O)cc1
Response: 6.70

Prompt: Note, next up: C[C@]12CC[C@@H]3c4ccc(O)cc4CC[C@H]3[C@@H]1CC[C@@H]2OC(=O)CNC(=O)c1ccc(S(N)(=O)=O)cc1
Response: 7.19

Prompt: Now the compound C[C@]12CC[C@@H]3c4ccc(O)cc4CC[C@H]3[C@@H]1CC[C@@H]2OC(=O)[C@@H]1CCCN1C(=O)c1cccc(-c2cccc(S(N)(=O)=O)c2)c1
Response: 5.00

Prompt: Okay, and C[C@]12CC[C@@H]3c4ccc(O)cc4CC[C@H]3[C@@H]1CC[C@@H]2OC(=O)[C@@H]1CCCN1C(=O)Cc1ccc(S(N)(=O)=O)cc1 ?
Response: 6.30
